Target: T1, recombinant human CD27/TNFRSF7/Fc chimera (R&D Systems Catalog No. 382-CD) (UniProt P26842 20-191)
T1 chain: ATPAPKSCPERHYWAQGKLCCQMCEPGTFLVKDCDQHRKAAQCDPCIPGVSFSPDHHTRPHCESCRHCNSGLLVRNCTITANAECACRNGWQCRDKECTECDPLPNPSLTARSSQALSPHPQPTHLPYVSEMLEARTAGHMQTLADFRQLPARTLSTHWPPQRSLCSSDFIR
Assay: Biacore SPR
value-type: Ka
Output should be the measured figure followed by the unit it is expressed in.

Tell us which Ka value is on record for 1H8-B4 (antibody, V domains shown) VH: QVQLVESGGGVVQPGRSLRLSCAASGFTFNIYDMHWVRQAPGKGLEWVAVIWYDGSNQYYADSVKGRFTISRDNSKNTLYLQMNILRAEDTAVYYCARGTHWGYFDYWGQGTLVTVSS VL: DIQMTQSPSSLSASVGDRVTITCRASQGISSWLAWYQQKPEKAPKSLIYAASNLQSGVPSRFSGSGSGTDFTLTISSLQPEDFATYYCQQYNSYPRTFGQGTKVEIK
6.39e+09 M⁻¹
